System: 415267-285-R-J2-PDC complex spheroid viability;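 also: luminescence used as stand-in measure of viable cells; spheroids exposed to compounds for one week before readout; 100% = DMSO vehicle control viability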
Assay: Anticancer human tumor 415267-285-R-J2-PDC patient-derived breast carcinoma cell line growth inhibition [POLQ]
Conditions: second compound 10 µM; first compound 0.1 µM; stronger effect = lower value
Procedure: Multicellular complex tumor spheroid response to Polymerase (POL) inhibitors (novobiocin, ART-558, RP6685) in combination with a variety of drugs and investigational agents in selected tumor cell lines The POL inhibitors (novobiocin, ART-558, and RP6685) were evaluated both individually and in combination with standard of care and investigational anticancer small molecules within a complex spheroid model of solid tumors. . […]
Measured viability, T/C of individual entries

[
  {
    "Compound": "Nc1ccn(C2OC(CO)C(O)C2(F)F)c(=O)n1 (stereo unspecified) + Nc1ccc(C#CCN(C(=O)Cc2ncc(C(F)(F)F)cc2C(F)(F)F)c2ccc(F)cc2)nn1",
    "viability, T/C": "6.3%"
  },
  {
    "Compound": "CC[C@@]1(O)C(=O)OCc2c1cc1n(c2=O)Cc2cc3c(CN(C)C)c(O)ccc3nc2-1 + Cc1cccc(N(C)C(=O)C2C(O)CCN2c2nc(C)cc(C(F)(F)F)c2C#N)c1",
    "viability, T/C": "9.1%"
  },
  {
    "Compound": "CCc1cc2c(N3CCc4c(cc(Cn5ccnc5)cc4-c4cn(C)nc4C(F)(F)F)C3=O)ccnc2c(OC)n1 + Nc1ccc(C#CCN(C(=O)Cc2ncc(C(F)(F)F)cc2C(F)(F)F)c2ccc(F)cc2)nn1",
    "viability, T/C": "83.8%"
  },
  {
    "Compound": "COc1cccc(OCCCN)c1-c1cc(Nc2cnc(C#N)cn2)n[nH]1 + COC1C(OC(N)=O)C(O)C(Oc2ccc3c(O)c(NC(=O)c4ccc(O)c(CC=C(C)C)c4)c(=O)oc3c2C)OC1(C)C",
    "viability, T/C": "6.59%"
  },
  {
    "Compound": "CC1COCCN1c1cc(C2(S(C)(=N)=O)CC2)nc(-c2ccnc3[nH]ccc23)n1 (stereo unspecified) + Nc1ccc(C#CCN(C(=O)Cc2ncc(C(F)(F)F)cc2C(F)(F)F)c2ccc(F)cc2)nn1",
    "viability, T/C": "91.2%"
  },
  {
    "Compound": "C=CCn1c(=O)c2cnc(Nc3ccc(N4CCN(C)CC4)cc3)nc2n1-c1cccc(C(C)(C)O)n1 + Cc1cccc(N(C)C(=O)C2C(O)CCN2c2nc(C)cc(C(F)(F)F)c2C#N)c1",
    "viability, T/C": "114%"
  },
  {
    "Compound": "O=C(Nc1ccc(O)c(NS(=O)(=O)c2ccc(F)cc2)c1)c1ccc(-c2ccccc2)cc1 + Cc1cccc(N(C)C(=O)C2C(O)CCN2c2nc(C)cc(C(F)(F)F)c2C#N)c1",
    "viability, T/C": "106%"
  },
  {
    "Compound": "CC(C)n1c(=O)n(C)c2cnc3cc(F)c(-c4ccc(OCCCN5CCCCC5)nc4)cc3c21 + COC1C(OC(N)=O)C(O)C(Oc2ccc3c(O)c(NC(=O)c4ccc(O)c(CC=C(C)C)c4)c(=O)oc3c2C)OC1(C)C",
    "viability, T/C": "99.5%"
  },
  {
    "Compound": "O=C(c1cc(Cc2n[nH]c(=O)c3ccccc23)ccc1F)N1CCN(C(=O)C2CC2)CC1 + Cc1cccc(N(C)C(=O)C2C(O)CCN2c2nc(C)cc(C(F)(F)F)c2C#N)c1",
    "viability, T/C": "85.1%"
  },
  {
    "Compound": "CC1COCCN1c1cc(C2(O)CC3CCC(C2)O3)c2cnn(-c3ccn[nH]3)c2n1 (stereo unspecified) + COC1C(OC(N)=O)C(O)C(Oc2ccc3c(O)c(NC(=O)c4ccc(O)c(CC=C(C)C)c4)c(=O)oc3c2C)OC1(C)C",
    "viability, T/C": "7.77%"
  },
  {
    "Compound": "C=CCn1c(=O)c2cnc(Nc3ccc(N4CCN(C)CC4)cc3)nc2n1-c1cccc(C(C)(C)O)n1 + Nc1ccc(C#CCN(C(=O)Cc2ncc(C(F)(F)F)cc2C(F)(F)F)c2ccc(F)cc2)nn1",
    "viability, T/C": "91.7%"
  },
  {
    "Compound": "COc1ccc([C@@H](O)c2cc(-c3ncnc4cc(N5CCOCC5)ccc34)c(F)cc2Cl)nn1 + COC1C(OC(N)=O)C(O)C(Oc2ccc3c(O)c(NC(=O)c4ccc(O)c(CC=C(C)C)c4)c(=O)oc3c2C)OC1(C)C",
    "viability, T/C": "97.8%"
  },
  {
    "Compound": "C#Cc1c(F)ccc2cc(O)cc(-c3ncc4c(N5CC6CCC(C5)N6)nc(OCC56CCCN5CC(F)C6)nc4c3F)c12 (stereo unspecified) + COC1C(OC(N)=O)C(O)C(Oc2ccc3c(O)c(NC(=O)c4ccc(O)c(CC=C(C)C)c4)c(=O)oc3c2C)OC1(C)C",
    "viability, T/C": "105%"
  },
  {
    "Compound": "COc1ccc([C@@H](O)c2cc(-c3ncnc4cc(N5CCOCC5)ccc34)c(F)cc2Cl)nn1 + Nc1ccc(C#CCN(C(=O)Cc2ncc(C(F)(F)F)cc2C(F)(F)F)c2ccc(F)cc2)nn1",
    "viability, T/C": "107%"
  },
  {
    "Compound": "CNCc1ccc(-c2[nH]c3cc(F)cc4c3c2CCNC4=O)cc1 + Cc1cccc(N(C)C(=O)C2C(O)CCN2c2nc(C)cc(C(F)(F)F)c2C#N)c1",
    "viability, T/C": "90.2%"
  },
  {
    "Compound": "C#Cc1c(F)ccc2cc(O)cc(-c3ncc4c(N5CC6CCC(C5)N6)nc(OCC56CCCN5CC(F)C6)nc4c3F)c12 (stereo unspecified) + Cc1cccc(N(C)C(=O)C2C(O)CCN2c2nc(C)cc(C(F)(F)F)c2C#N)c1",
    "viability, T/C": "95.4%"
  }
]

From: PubChem BioAssay AID1963847
